assay-comment: Example 1: cell number (hemocytometer) and viability (trypan blue)
Assay type: cell-based, Chinese hamster
experimental-parameters: Chinese hamster, 31° C., 10 μM decitabine, day 10
readout-type: viability at 10 day, 10 μM (%)
The figure you give is taken to be in %; do not add the unit.

q: Tell me the measured viability at 10 day, 10 μM of Nc1ncn([C@H]2C[C@H](O)[C@@H](CO)O2)c(=O)n1 [decitabine, 5-aza-2′-deoxycytidine] , please.
a: 50.6

----------
assay-comment: Example 1: cell number (hemocytometer) and viability (trypan blue)
Assay type: cell-based, Chinese hamster
experimental-parameters: Chinese hamster, 31° C., 10 μM decitabine, day 3
readout-type: viability at 3 day, 10 μM (%)
State just the number; it will be interpreted in %.

q: Return reported viability at 3 day, 10 μM; argument: Nc1ncn([C@H]2C[C@H](O)[C@@H](CO)O2)c(=O)n1 [decitabine, 5-aza-2′-deoxycytidine]
a: 94.5

----------
assay-comment: Example 2: cell number and viability
Type: cell-based, Chinese hamster
experimental-parameters: Chinese hamster, cell line 25H9 (CHO cells), 30° C., 10 μM decitabine, day 0
readout-type: viability at 0 day, 10 μM (%)
Use % as the unit, but write only the number.

q: Fill in: viability at 0 day, 10 μM of `Nc1ncn([C@H]2C[C@H](O)[C@@H](CO)O2)c(=O)n1` is ___
a: 94.2

----------
assay-comment: Example 2: cell number and viability
Type: cell-based, Chinese hamster
experimental-parameters: Chinese hamster, cell line 25H9 (CHO cells), 32° C., 20 μM decitabine, day 3
readout-type: viability at 3 day, 20 μM (%)
Give the value in % but do not write % after it.

q: Data request, read-out viability at 3 day, 20 μM, for `Nc1ncn([C@H]2C[C@H](O)[C@@H](CO)O2)c(=O)n1`
a: 89.1

----------
assay-comment: Example 2: cell number and viability
Assay type: cell-based, Chinese hamster
experimental-parameters: Chinese hamster; 31° C., 0.5 mM butyrate, day 8
readout-type: viability at 8 day, 0.5 mM

q: Entry under review: CCCC(=O)[O-].[Na+] [butyrate, sodium butyrate] . Reported viability at 8 day, 0.5 mM?
a: 71.1%

----------
assay-comment: Example 1: cell number (hemocytometer) and viability (trypan blue)
Type: cell-based, Chinese hamster
experimental-parameters: Chinese hamster, 31° C., 1 μM decitabine, day 7
readout-type: viability at 7 day, 1 μM (%)
Provide only the numeric value, understood in %.

q: Fill in the blank: the reported viability at 7 day, 1 μM of Nc1ncn([C@H]2C[C@H](O)[C@@H](CO)O2)c(=O)n1 [decitabine, 5-aza-2′-deoxycytidine] is ____.
a: 87.7

----------
assay-comment: Example 1: cell number (hemocytometer) and viability (trypan blue)
Type: cell-based, Chinese hamster
experimental-parameters: Chinese hamster, 31° C., 10 μM decitabine, day 5
readout-type: viability at 5 day, 10 μM (%)
// return numeric value only (unit: %, not printed)

q: // viability at 5 day, 10 μM lookup, key: `Nc1ncn([C@H]2C[C@H](O)[C@@H](CO)O2)c(=O)n1`
a: 80.8

----------
assay-comment: Example 2: cell number and viability
Type: cell-based, Chinese hamster
experimental-parameters: Chinese hamster, cell line 25H9 (CHO cells), 31° C., 15 μM decitabine, day 8
Description: About 2×10^6 cells of cell line 25H9 were inoculated into 30 milliliters of serum-free medium and incubated at the temperatures indicated in Table 1 in vented shake flasks. […] IL-1R-II protein titer was determined by ELISA assay. Cell number was determined by counting cells in a hemocytometer. Cell viability was determined by trypan blue staining and counting stained cells in a hemocytometer. […]
readout-type: viability at 8 day, 15 μM (%)
# output: bare number, implied unit %

q: Returns the measured viability at 8 day, 15 μM for the input compound. Input: `Nc1ncn([C@H]2C[C@H](O)[C@@H](CO)O2)c(=O)n1`
a: 57.6
